Target: human orexin 1 receptors (Homo sapiens)
Sequence (O43613 1-425): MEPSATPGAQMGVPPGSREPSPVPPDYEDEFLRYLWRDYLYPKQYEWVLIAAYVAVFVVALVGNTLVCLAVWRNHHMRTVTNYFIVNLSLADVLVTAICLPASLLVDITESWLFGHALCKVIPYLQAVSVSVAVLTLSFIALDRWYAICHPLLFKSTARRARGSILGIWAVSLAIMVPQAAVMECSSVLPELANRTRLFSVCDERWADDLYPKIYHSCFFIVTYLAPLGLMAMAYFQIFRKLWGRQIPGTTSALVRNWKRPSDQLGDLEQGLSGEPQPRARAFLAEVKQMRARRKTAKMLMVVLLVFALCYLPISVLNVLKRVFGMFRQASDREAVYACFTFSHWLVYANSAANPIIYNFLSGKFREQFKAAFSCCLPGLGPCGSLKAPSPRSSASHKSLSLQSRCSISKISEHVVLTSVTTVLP
Assay: Calcium accumulation in cells (FLIPR), hOx1R
pKi: −log10 of the molar value.
Reported pKi is given for each of the following compounds.
metric name: pKi

{"structure smiles": "Cc1cc(C)nc(N2CCC3(CCCN(Cc4n[nH]cc4-c4ccccc4)C3=O)CC2)n1", "metric name": "pKi", "value observed": 6.12}
{"structure smiles": "CCc1cc(C)nc(N2CCC3(CCCN(Cc4c[nH]c5ccccc45)C3=O)CC2)n1", "metric name": "pKi", "value observed": 6.12}
{"structure smiles": "Cc1cc(C)nc(N2CCC3(CCCN(Cc4cccc(-c5ncc(C)o5)c4)C3=O)CC2)n1", "metric name": "pKi", "value observed": 6.15}
{"structure smiles": "Cc1cccc(N2CCC3(CCCN(Cc4c[nH]c5ccccc45)C3=O)CC2)c1", "metric name": "pKi", "value observed": 5.43}
{"structure smiles": "Cc1cc(C)nc(N2CCC3(CCCN(Cc4c[nH]c5c(C)cccc45)C3=O)CC2)n1", "metric name": "pKi", "value observed": 5.72}
{"structure smiles": "N#Cc1cncc(N2CCC3(CCCN(Cc4c[nH]c5ccccc45)C3=O)CC2)n1", "metric name": "pKi", "value observed": 5.44}
{"structure smiles": "COc1cccc(-c2sc(C)nc2CN2CCCC3(CCN(c4nc(C)cc(C)n4)CC3)C2=O)c1", "metric name": "pKi", "value observed": 6.67}
{"structure smiles": "Cc1cnc(-c2cccc(CN3CCCC4(CCN(c5cccc(C#N)n5)CC4)C3=O)c2)o1", "metric name": "pKi", "value observed": 6.27}

---

Molecular target: human orexin 2 receptors (Homo sapiens, UniProt O43614)
Sequence (O43614 whole entry): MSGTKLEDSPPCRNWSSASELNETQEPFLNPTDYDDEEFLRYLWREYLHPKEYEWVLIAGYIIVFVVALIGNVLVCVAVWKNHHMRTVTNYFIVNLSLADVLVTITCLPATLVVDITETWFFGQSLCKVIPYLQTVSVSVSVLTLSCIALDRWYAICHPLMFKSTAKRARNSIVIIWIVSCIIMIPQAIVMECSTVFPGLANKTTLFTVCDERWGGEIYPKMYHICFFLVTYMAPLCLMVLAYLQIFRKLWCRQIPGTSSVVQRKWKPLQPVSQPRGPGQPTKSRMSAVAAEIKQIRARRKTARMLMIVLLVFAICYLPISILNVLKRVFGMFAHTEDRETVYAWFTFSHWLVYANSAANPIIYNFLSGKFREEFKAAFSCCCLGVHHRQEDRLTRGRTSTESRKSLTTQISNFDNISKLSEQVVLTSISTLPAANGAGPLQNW
Assay: Radioligand binding assay ([3H]-SB649868 competition), hOx2R
Conditions: competition with about 1 nM [3H]-SB649868; CHO or HEK cell membranes expressing human orexin 2 receptor; read-out: binding hOx2R Kd
Procedure: The cell pellet was either stored at −80° C. or used directly. Before the experiments, cell membranes were re-suspended in binding assay buffer (10 mM HEPES, 0.5% (w/v) bovine serum albumin, pH 7.5) by homogenisation with a Polytron homogeniser at 50 Hz for 20 s. […] Bound radioactivity was measured, and data were analysed with the program XLFIT or Graphpad Prism. Protein concentration was determined according to the Bradford/BioRad Protein Assay Kit. […]
Reported log10 Kd is given for each of the following compounds.
metric name: log10 Kd (log10 of the value in nM)

{"structure smiles": "Cc1cc(C)nc(N2CCC3(CCCN(Cc4ccccc4-c4nc(C)no4)C3=O)CC2)n1", "metric name": "log10 Kd", "value observed": 1.82}
{"structure smiles": "Cc1cc(C)nc(N2CCC3(CCCN(Cc4n[nH]cc4-c4ccccc4)C3=O)CC2)n1", "metric name": "log10 Kd", "value observed": 1.69}
{"structure smiles": "Cc1cc(C)nc(N2CCC3(CCCN(Cc4cccc(-c5ncccn5)c4)C3=O)CC2)n1", "metric name": "log10 Kd", "value observed": 2.16}
{"structure smiles": "COc1cccc(N2CCC3(CCCN(Cc4c[nH]c5ccccc45)C3=O)CC2)n1", "metric name": "log10 Kd", "value observed": 2.77}
{"structure smiles": "O=C1CCCC2(CCN(c3cncc(Cl)n3)CC2)N1Cc1cccc2[nH]ccc12", "metric name": "log10 Kd", "value observed": 2.38}
{"structure smiles": "COc1ccnc(N2CCC3(CCCN(Cc4c[nH]c5ccccc45)C3=O)CC2)n1", "metric name": "log10 Kd", "value observed": 1.87}
{"structure smiles": "COc1ccnc(N2CCC3(CCCN(Cc4ccccc4-c4nc(C)no4)C3=O)CC2)n1", "metric name": "log10 Kd", "value observed": 2.36}
{"structure smiles": "N#Cc1cccc(N2CCC3(CCCN(Cc4cccc(-c5ncccn5)c4)C3=O)CC2)n1", "metric name": "log10 Kd", "value observed": 2.83}
{"structure smiles": "Cc1cc(C)nc(N2CCC3(CCCN(Cc4cccc5c4OCCO5)C3=O)CC2)n1", "metric name": "log10 Kd", "value observed": 2.32}
{"structure smiles": "Cc1cc(C)nc(N2CCC3(CCCN(Cc4ccccc4-c4ccco4)C3=O)CC2)n1", "metric name": "log10 Kd", "value observed": 2.04}
{"structure smiles": "Cc1cc(C)nc(N2CCC3(CCCN(Cc4n[nH]c5ccccc45)C3=O)CC2)n1", "metric name": "log10 Kd", "value observed": 1.81}
{"structure smiles": "Cc1ccnc(N2CCC3(CCCC(=O)N3Cc3cccc4[nH]c(C)cc34)CC2)n1", "metric name": "log10 Kd", "value observed": 1.95}
{"structure smiles": "Cc1cc(C)nc(N2CCC3(CCCN(Cc4ccccc4-n4nccn4)C3=O)CC2)n1", "metric name": "log10 Kd", "value observed": 2.41}
{"structure smiles": "Cc1ccnc(N2CCC3(CCCC(=O)N3Cc3cccc4[nH]ccc34)CC2)n1", "metric name": "log10 Kd", "value observed": 2.15}
{"structure smiles": "N#Cc1cccc(N2CCC3(CCCN(Cc4c[nH]c5ccccc45)C3=O)CC2)n1", "metric name": "log10 Kd", "value observed": 3.32}
{"structure smiles": "Cc1cnc(N2CCC3(CCCN(Cc4c[nH]c5ccccc45)C3=O)CC2)nc1C", "metric name": "log10 Kd", "value observed": 1.46}
{"structure smiles": "N#Cc1ccnc(N2CCC3(CCCN(Cc4cccc(-c5ncccn5)c4)C3=O)CC2)c1", "metric name": "log10 Kd", "value observed": 1.99}
